system: NCI/ADR-RES ovarian; assay: NCI-60 one-dose screen, 48 h (100 = growth as untreated, 0 = no growth, -100 = all killed); settings: 10 µM
The panel holds about 83,000 compounds, 20% with a hit somewhere; the sample as a whole holds those more often.
Here the recorded growth is given for each entry.
Write it as a number; the unit % goes unstated.

Worked examples follow.
{"compound": "O=C1/C(=C\\c2ccc(F)cc2)CN(C(=O)c2ccccc2F)C/C1=C\\c1ccc(F)cc1", "growth / %": 11.5}
{"compound": "O=C(Nc1nc2ccccc2s1)Nc1ccc([N+](=O)[O-])cc1Cl", "growth / %": 14.4}
{"compound": "c1ccc(CSc2nnc3c4c5c(sc4nc(-c4cccnc4)n23)CCCCCC5)cc1", "growth / %": 100}
{"compound": "Cc1ccc(CC#N)cc1C", "growth / %": 106}
{"compound": "N#Cc1cc(-c2cc3ccccc3o2)oc1N", "growth / %": 11.1}
{"compound": "CCCCCCc1cc(N=Nc2ccc(S(=O)(=O)Nc3cc(C)nc(C)n3)cc2)c(O)cc1O", "growth / %": 99.9}
{"compound": "CN(C)c1ccc(N=C2C=CC(=O)c3ccccc32)cc1", "growth / %": 85.5}
{"compound": "C[N+](C)(C)c1ncnc2nc[nH]c12", "growth / %": 94.1}
{"compound": "COc1ccc(Nc2ccnc(NCCNc3ccnc4cc(Cl)ccc34)n2)cc1", "growth / %": 66.8}
{"compound": "CCCC(F)C(=O)O (stereo unspecified)", "growth / %": 108}

Now take the following compound into account.
Need growth, item CCOC(=O)N1C/C(=C/c2ccc(F)cc2)C(=O)/C(=C/c2ccc(F)cc2)C1 9.49

###

The following compounds are listed with their measured growth values.
tested on: UO-31 renal; assay: NCI-60 one-dose screen, 48 h (100 = growth as untreated, 0 = no growth, -100 = all killed); conditions: 10 µM
This is part of a sample that, as a whole, favours compounds with a hit. Of some 83,000 tested, about 20% had one in any assay.
Field: numeric (%). Do not append units.

# example entries with known answers
{"compound": "CCN(CC)CCCOCCCNc1cc(OC)cc2cccnc12", "growth, %": 95.7}
{"compound": "O=C(Nc1cccc(-n2cc(-c3ccncc3)c(-c3ccc(O)c(Cl)c3)n2)c1)c1cc(C(F)(F)F)cc(C(F)(F)F)c1", "growth, %": 47.8}
{"compound": "FC(F)(F)c1ccc(-c2cnc(Cl)nc2N2CCC3(CC2)OCCO3)cc1", "growth, %": 69.5}

Query (compound): N#Cc1cccc(OCc2nc(N)nc(N)c2-c2ccc(Cl)c(Cl)c2)c1 ; field requested: growth 33.6

Param item = Cc1ccc(CC#N)cc1C ; retrieve measured growth. 94.4

###

As shown below, each of these compounds has a reported growth value.
test system: CAKI-1 renal; assay: NCI-60 one-dose screen, 48 h (100 = growth as untreated, 0 = no growth, -100 = all killed); details: 10 µM
Compounds without any hit were thinned out: in the full panel of roughly 83,000, 20% have a hit.
Enter your answer as a number in %; do not include the unit.

{"compound": "CCN(CC)CCOc1nc2ccc(OC)cc2c2c1-c1ccc(OC)cc1C2=O", "growth (%)": -4.67}
{"compound": "O=C1/C(=C/c2ccc(Cl)cc2)SC(=Nc2ccc(Cl)cc2)N1Cc1nc2ccccc2[nH]1", "growth (%)": 8.38}
{"compound": "CCCCCCCCCCCCCC[n+]1ccc(C(N)=O)cc1", "growth (%)": 15.6}
{"compound": "N#Cc1cccc(OCc2nc(N)nc(N)c2-c2ccc(Cl)c(Cl)c2)c1", "growth (%)": 10.5}
{"compound": "O=S(=O)(NCCCNc1nccc(-c2c(-c3ccc(F)cc3)nc3sccn23)n1)c1ccc(F)cc1", "growth (%)": 29.9}

Consider the compound shown here: CC(=O)C1CCC2C3CC(F)C4=CC(=O)CCC4(C)C3C(O)CC12C (centres undefined) What is its recorded growth? 96.1

If you can, please state the reported growth value of COc1ccc(-c2nn(-c3cccc(NC(=O)Nc4cc(C(F)(F)F)cc(C(F)(F)F)c4)c3)cc2-c2ccncc2)cc1Cl . -12.3

Form field: reported growth of O=C(CCCCC[P+](c1ccccc1)(c1ccccc1)c1ccccc1)NC(COC(=O)C(Cl)Cl)(COC(=O)C(Cl)Cl)COC(=O)C(Cl)Cl 107

Tell me the measured growth of COC(=O)C1=NNC(=S)N(c2cc(C)[nH]n2)C(=O)C1 , please. 92.5
